src = paper PMC3925156

# measurement-target: Fenugreek β-amylase
# Construct: native, purified from ungerminated seeds (acetone, DEAE-cellulose, glycogen precipitation)
# assay-overview: starch hydrolysis assay, Dixon plot
# measurement-context: competitive; starch substrate, pH 5.0, 30°C, 10 min preincubation
Recorded Ki values for a group of compounds are listed next.
Give a bare numeral; the unit mM is implied.

OC[C@H]1O[C@@](CO)(O[C@H]2O[C@H](CO)[C@@H](O)[C@H](O)[C@H]2O)[C@@H](O)[C@@H]1O = 2.32

Field: next compound
Form field: Ki recorded for OC[C@H]1O[C@@H]2O[C@H]3[C@H](O)[C@@H](O)[C@@H](O[C@H]4[C@H](O)[C@@H](O)[C@@H](O[C@H]5[C@H](O)[C@@H](O)[C@@H](O[C@H]6[C@H](O)[C@@H](O)[C@@H](O[C@H]7[C@H](O)[C@@H](O)[C@@H](O[C@H]1[C@H](O)[C@H]2O)O[C@@H]7CO)O[C@@H]6CO)O[C@@H]5CO)O[C@@H]4CO)O[C@@H]3CO with Fenugreek β-amylase (enter value) 3.97
